molecular target: HLA-A*02:01; assay: IEDB peptide-MHC binding, purified MHC/direct/fluorescence; filed as Kd, often an IC50 or EC50 that approximates it; bounds were set here for any values at or beyond the usual limits of such assays; conditions: source organism: Vibrio vulnificus YJ016
Endpoint: Kd

# Sequence data, Endpoint, Test result
rows = [
    ("KRFYQTVGF", "Kd", "≥ 20 µM"),
]

* * *

biological target: HLA-B*35:01; assay: IEDB peptide-MHC binding, purified MHC/competitive/radioactivity; filed as Kd, often an IC50 or EC50 that approximates it; bounds were set here for any values at or beyond the usual limits of such assays; settings: source organism: Vaccinia virus Copenhagen
pKd: −log10 of the molar value.

# Sequence data, pKd
rows = [
    ("ILDDNLYKV", "≤ 4.11"),
]

Ref: the Immune Epitope Database (IEDB)
